Items are presented alongside their recorded percent inhibition of viability.
tested on: normal primary NK cells, pool 3 (3 donors) (IL-2 2.5 ng/mL); experiment: percent inhibition of viability; higher = more inhibition; conditions: 72 h; 100 nM
Quantity name: percent inhibition of viability (%)

Cc1ccc(C(=O)N(CCCN)[C@@H](c2oc3cc(Cl)ccc3c(=O)c2Cc2ccccc2)C(C)C)cc1 (max concentration tested 100 nM) : 15.5
CS(=O)(=O)N1CCc2c(-c3cnc(N)nc3)nc(N3CCOCC3)nc21 (max concentration tested 10000 nM) : 13
C/C(=C\c1csc(C)n1)[C@@H]1C[C@@H]2O[C@]2(C)CCC[C@H](C)[C@H](O)[C@@H](C)C(=O)C(C)(C)[C@@H](O)CC(=O)O1 [Patupilone] (max concentration tested 1000 nM) : 3.45
CC[C@@]1(O)C(=O)OCc2c1cc1n(c2=O)Cc2cc3c(CN(C)C)c(O)ccc3nc2-1 [Topotecan] (max concentration tested 10000 nM) : 20.6
Nc1cccc2c1CN(C1CCC(=O)NC1=O)C2=O (configuration not stated) [Lenalidomide] (max concentration tested 100000 nM) : -13.1
Nc1ncnc2c1c(COc1cccc(Cl)c1)nn2C1CCOCC1 (max concentration tested 10000 nM) : -0.61
CO[C@@]12[C@H](COC(N)=O)C3=C(C(=O)C(C)=C(N)C3=O)N1C[C@@H]1N[C@@H]12 [Mitomycin C] (max concentration tested 10000 nM) : 8.1
Oc1c2ccccc2c2c3c(cccc13)N=N2 (max concentration tested 100000 nM) : 3
CNc1nc(-c2ccc3c(N)n[nH]c3c2)cc(N2C[C@@H](C(=O)NC3CCCCC3)CC[C@H]2C)n1 (max concentration tested 10000 nM) : -6.95
O=NN(CCCl)C(=O)NC1CCCCC1 [Lomustine] (max concentration tested 10000 nM) : -8.45
COc1ccc(COc2cc3oc(=O)c4cc(C(C)O)ccc4c3cc2OC)cc1 (configuration not stated) [Palomid-529] (max concentration tested 10000 nM) : 2.41
COc1cc2c(N3CCN(C(=O)Nc4ccc(OC(C)C)cc4)CC3)ncnc2cc1OCCCN1CCCCC1 [Tandutinib] (max concentration tested 1000 nM) : -4.05

---

tested on: normal primary NK cells, pool 1 (3 donors), resting (IL-2 0 ng/mL); test: percent inhibition of viability; higher = more inhibition; conditions: 72 h; 1000 nM
Quantity name: percent inhibition of viability (%)

COc1cc2c(Oc3ccc(NC(=O)C4(C(=O)Nc5ccc(F)cc5)CC4)cc3F)ccnc2cc1OCCCN1CCOCC1 [Foretinib] (max concentration tested 1000 nM) : 18.4
CCc1cc(Nc2nccc(-c3c(-c4ccc(OC)c(C(=O)Nc5c(F)cccc5F)c4)nc4ccccn34)n2)c(OC)cc1N1CCC(N2CCN(S(C)(=O)=O)CC2)CC1 (max concentration tested 10000 nM) : 4.15
CC(=O)Nc1ccc(C(=O)Nc2ccccc2N)cc1 [Tacedinaline] (max concentration tested 1000 nM) : 7.91
S=C(NCc1ccc2c(c1)OCO2)N1CCN(c2ncnc3c2oc2ccccc23)CC1 [Amuvatinib] (max concentration tested 10000 nM) : 28.6
O=C(NC1CCNCC1)c1n[nH]cc1NC(=O)c1c(Cl)cccc1Cl [AT7519] (max concentration tested 10000 nM) : 90.1

---

system: NK-92 (IL-2 2.5 ng/mL); test: percent inhibition of viability; higher = more inhibition; conditions: 72 h; 100 nM
percent inhibition of viability vs 20%: less than gives Satisfied; not less than gives Not satisfied.

CC[C@H](CO)Nc1nc(NCc2ccccc2)c2ncn(C(C)C)c2n1 [Seliciclib] (max concentration tested 10000 nM) : Satisfied
Cc1c(Cn2c(C)nc3c(C(=O)O)cc(N4CCOCC4)cc32)cccc1C(F)(F)F (max concentration tested 10000 nM) : Not satisfied
O=NN(CCCl)C(=O)NC1CCCCC1 [Lomustine] (max concentration tested 10000 nM) : Satisfied
CO[C@H]1/C=C\C=C(/C)C(=O)NC2=CC(=O)C(NCCN(C)C)=C(C[C@@H](C)C[C@H](OC)[C@H](O)[C@@H](C)/C=C(\C)[C@@H]1OC(N)=O)C2=O [Alvespimycin] (max concentration tested 1000 nM) : Not satisfied
CCc1c(C(=O)C(N)=O)c2c(OCC(=O)O)cccc2n1Cc1ccccc1 [Varespladib] (max concentration tested 10000 nM) : Satisfied

---

test system: NKL (IL-2 2.5 ng/mL); assay: percent inhibition of viability; higher = more inhibition; settings: 72 h; 10 nM
The entries below come with measured percent inhibition of viability values attached.
Quantity name: percent inhibition of viability (%)

CN1CCN(CCOc2cc(OC3CCOCC3)c3c(Nc4c(Cl)ccc5c4OCO5)ncnc3c2)CC1 [Saracatinib] (max concentration tested 10000 nM) : -18.5
Cc1nc(N)sc1-c1ccnc(Nc2ccc(N3CCOCC3)cc2)n1 [CYC-116] (max concentration tested 10000 nM) : -8.68
CNNCc1ccc(C(=O)NC(C)C)cc1 [Procarbazine] (max concentration tested 10000 nM) : -21.9
CC[C@@H]1C(=O)N(C)c2cnc(Nc3ccc(C(=O)N[C@H]4CC[C@H](N5CCN(CC6CC6)CC5)CC4)cc3OC)nc2N1C(C)C [Volasertib] (max concentration tested 1000 nM) : -5.94
CN(C)Cc1ccc(S(=O)(=O)n2ccc(/C=C/C(=O)NO)c2)cc1 [Resminostat] (max concentration tested 10000 nM) : 0.52
Cn1cncc1[C@@](N)(c1ccc(Cl)cc1)c1ccc2c(c1)c(-c1cccc(Cl)c1)cc(=O)n2C [Tipifarnib] (max concentration tested 10000 nM) : -3.92
C[C@]12C=CC(=O)C=C1CC[C@@H]1[C@@H]2C(=O)C[C@@]2(C)[C@H]1CC[C@]2(O)C(=O)CO [Prednisone] (max concentration tested 10000 nM) : 4.61
CC(C)(C#N)c1cc(Cn2cncn2)cc(C(C)(C)C#N)c1 [Anastrozole] (max concentration tested 10000 nM) : -8.92
Cc1c(C(=O)Nc2ccc(N3C[C@@H](C)O[C@@H](C)C3)nc2)cccc1-c1ccc(OC(F)(F)F)cc1 [Sonidegib] (max concentration tested 10000 nM) : 3.73
CCNC(=O)c1noc(-c2cc(C(C)C)c(O)cc2O)c1-c1ccc(CN2CCOCC2)cc1 [Luminespib] (max concentration tested 1000 nM) : 87.8
CC(C)CC(=O)Nc1n[nH]c2c1CN(C(=O)C1CCN(C)CC1)C2(C)C (max concentration tested 10000 nM) : 12.1
C#Cc1cccc(Nc2ncnc3cc(OCCOC)c(OCCOC)cc23)c1 [Erlotinib] (max concentration tested 10000 nM) : 4.23
COc1cc2ncnc(Nc3ccc(F)c(Cl)c3)c2cc1NC(=O)/C=C/CN1CCCCC1 [Dacomitinib] (max concentration tested 1000 nM) : 21.4
COc1cc2c(N3CCN(C(=O)Nc4ccc(OC(C)C)cc4)CC3)ncnc2cc1OCCCN1CCCCC1 [Tandutinib] (max concentration tested 1000 nM) : -9.72

---

tested on: YT (IL-2 2.5 ng/mL); assay: relative IC50 (inflection point of fitted viability curve, relative to fitted max inhibition); higher = less sensitive; details: 72 h
Quantity name: relative IC50 (nM)

CC[C@H](CO)Nc1nc(NCc2ccccc2)c2ncn(C(C)C)c2n1 [Seliciclib] : 1850
CNC(=O)c1nn(C)c2c1C(C)(C)Cc1cnc(Nc3ccc(N4CCN(C)CC4)cc3)nc1-2 [Milciclib] : 1680
CCNC(=O)c1noc(-c2cc(C(C)C)c(O)cc2O)c1-c1ccc(CN2CCOCC2)cc1 [Luminespib] : 26.2

---

system: normal primary NK cells, pool 1 (3 donors), resting (IL-2 0 ng/mL); test: percent inhibition of viability; higher = more inhibition; conditions: 72 h; 10000 nM
Field: label. Allowed values: True (percent inhibition of viability < 30%) or False (percent inhibition of viability >= 30%).

CNCc1ccc(-c2[nH]c3cc(F)cc4c3c2CCNC4=O)cc1 [Rucaparib] (max concentration tested 10000 nM) : True
C#Cc1cccc(Nc2ncnc3cc(OCCOC)c(OCCOC)cc23)c1 [Erlotinib] (max concentration tested 10000 nM) : False
CN(C[C@@H]1COCCO1)S(=O)(=O)Nc1ccc2ccc3ncc(-c4cnn(C)c4)cc3c(=O)c2c1 [MK-2461] (max concentration tested 10000 nM) : True
O=c1ncn2nc(Sc3ccc(F)cc3F)ccc2c1-c1c(Cl)cccc1Cl [VX 745] (max concentration tested 10000 nM) : False
CS(=O)(=O)c1ccc(C2=C(c3ccccc3)C(=O)OC2)cc1 [Rofecoxib] (max concentration tested 10000 nM) : True
Nc1cccc2c1C(=O)N(C1CCC(=O)NC1=O)C2=O (stereo not given) [Pomalidomide] (max concentration tested 10000 nM) : True
COc1cc(N2CCN(C)CC2)ccc1Nc1nccc(-c2cn(C)c3cnccc23)n1 [AZ191] (max concentration tested 10000 nM) : False
O[C@H]1CC[C@H](Nc2ncc3nc(Nc4c(F)cc(F)cc4F)n([C@H]4CCOC4)c3n2)CC1 [Tanzisertib] (max concentration tested 10000 nM) : True
O=C(CCBr)N1CCN(C(=O)CCBr)CC1 [Pipobroman] (max concentration tested 10000 nM) : True
CN(C)/N=N/c1[nH]cnc1C(N)=O [Dacarbazine] (max concentration tested 10000 nM) : True
COc1ccc(-c2ccc3c(N4CCOC[C@@H]4C)nc(N4CCOC[C@@H]4C)nc3n2)cc1CO [AZD8055] (max concentration tested 10000 nM) : True
Nc1ncnc2c1c(COc1cccc(Cl)c1)nn2C1CCOCC1 (max concentration tested 10000 nM) : True
COc1cc(Nc2c(C#N)cnc3cc(OCCCN4CCN(C)CC4)c(OC)cc23)c(Cl)cc1Cl [Bosutinib] (max concentration tested 10000 nM) : False
CC(C)(C)Cn1c(N)nc2ccc(-c3[nH]c(C(C)(C)C)nc3-c3ccc(F)cc3)nc21 [Ralimetinib] (max concentration tested 10000 nM) : False

Data provenance is the supplement of paper PMC5908809.
